- target.entity: Glycogen synthase kinase-3 beta (Homo sapiens) (UniProt P49841)
- Sequence (P49841 whole entry, looked up): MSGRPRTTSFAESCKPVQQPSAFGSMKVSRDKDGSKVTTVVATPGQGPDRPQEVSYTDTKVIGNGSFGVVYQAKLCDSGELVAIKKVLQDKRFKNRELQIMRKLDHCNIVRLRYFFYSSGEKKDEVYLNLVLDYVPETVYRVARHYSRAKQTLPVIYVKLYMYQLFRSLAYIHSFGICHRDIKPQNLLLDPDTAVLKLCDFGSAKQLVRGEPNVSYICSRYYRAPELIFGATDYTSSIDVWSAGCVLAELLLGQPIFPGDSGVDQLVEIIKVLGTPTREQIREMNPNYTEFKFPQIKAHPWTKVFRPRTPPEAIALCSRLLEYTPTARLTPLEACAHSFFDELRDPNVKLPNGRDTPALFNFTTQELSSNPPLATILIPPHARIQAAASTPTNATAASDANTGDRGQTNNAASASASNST
- test.parameters: Compound concentration 20.0 uM
- Description: Thermal Shift Assay. Domain: start/stop: M26-R383
property: ΔTm (°C)
Give bare numbers, in °C.

Examples with answers:
{"compound": "COc1cc2c(cc1-c1c(C)noc1C)[nH]c1nc(C)nc(-c3ccnc4ccccc34)c12", "units.symbol": "°C", "ΔTm": 0.97}
{"compound": "CN1CCN(c2ccc3nc(-c4c(N)c5c(F)cccc5[nH]c4=O)[nH]c3c2)CC1", "units.symbol": "°C", "ΔTm": 3.22}
{"compound": "OC[C@H]1O[C@@H](c2ccc(F)c(Cc3cc4ccccc4s3)c2)[C@H](O)[C@@H](O)[C@@H]1O", "units.symbol": "°C", "ΔTm": -0.62}

Required: ΔTm, one value per compound below.
1. CCCCCCCC(=O)N[C@H](CN1CCCC1)[C@H](O)c1ccc2c(c1)OCCO2
2. Cc1[nH]c2c(N3CCCCC3)c(-c3ccccc3)nn2c(=O)c1-c1ccc(O)cc1
3. CNC[C@@H](O)COc1ccc(Cl)c(-c2nc(-c3c(C)noc3C)c(C)c(N3CC4(CCN(C(=O)OC)CC4)C3)n2)c1
4. Cc1cc(-c2ccccc2)cc(C(=O)NNS(=O)(=O)c2ccccc2)c1F
5. Cc1ncsc1-c1ccc(CNC(=O)[C@@H]2C[C@@H](O)CN2C(=O)[C@@H](NC(=O)COCCOCCOc2ccc(-c3ccc4ncnc(Nc5ccc(OCc6cccc(F)c6)c(Cl)c5)c4c3)cc2)C(C)(C)C)cc1

-0.11
-1.39
-0.26
-3.1
9.57

# per-item lookup of ΔTm; items listed below
1. CC(C)(C)NS(=O)(=O)c1ccc(NC(=O)[C@H](Cc2ccccc2)NC(=O)c2ccc(F)cc2)cc1
2. Cn1c(NCCN(CCO)CCCc2ccc([N+](=O)[O-])cc2)cc(=O)n(C)c1=O
3. CC(C)Oc1ccc2c(=O)[nH]c3sccc3c2c1
4. CN1CCN(c2cc(C(=O)Nc3ncc(SCc4cccc(C(F)(F)F)c4)s3)ccn2)CC1
5. CNc1cc(-c2cccc(Cl)c2Cl)nc(N)n1
6. Nc1c[nH]c(=O)c2cc(-c3ccccc3)sc12

[2.59, -0.66, 0.89, 0, -0.04, -0.86]

Could I get ΔTm for every one of these entries?
1. C[C@H](Nc1nc2c(cnn2C2CCCC2)c(=O)[nH]1)c1ccc(Cl)cc1
2. Nc1ccccc1NC(=O)CCCCCC(=O)Nc1ccccc1
3. OC[C@H]1O[C@@H](c2ccc(Cl)c(Cc3ccc(O[C@H]4CCOC4)cc3)c2)[C@H](O)[C@@H](O)[C@@H]1O
4. Cn1nc(C(C)(C)C)cc1C(=O)NC(Cc1cccc(Cl)c1)C(=O)NCC#N (centres undefined)
5. COc1ccc(CNc2nc(N3CCC[C@H]3CO)ncc2C(=O)NCc2ncccn2)cc1Cl
6. Cc1cc(C)c(CNC(=O)c2cc(Cl)c3c(c2C)O[C@@](C)([C@H]2CC[C@H](N(C)C)CC2)O3)c(=O)[nH]1

1: -1.9; 2: -0.05; 3: -0.36; 4: 0.23; 5: 0.12; 6: -0.76
